Measured values drawn from paper PMC6258031 for this set.

Biological target: T1, Bicc1 SAM R924E (native) (human, UniProt Q9H694 870-939, R924E)
T1 sequence (looked up): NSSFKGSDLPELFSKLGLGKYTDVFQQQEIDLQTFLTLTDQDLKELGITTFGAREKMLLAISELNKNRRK
Assay: SPR
Measured Quantity: pKd
For clarity, pKd is expressed as the negative log10 of concentration in mol/L.

Binder: Bicc1 SAM E898K (domain or fragment, human, UniProt Q9H694 870-939, looked up) NSSFKGSDLPELFSKLGLGKYTDVFQQQKIDLQTFLTLTDQDLKELGITTFGARRKMLLAISELNKNRRK
Measured Quantity: pKd
Recorded Measurement: 5.87

Tell us which pKd value is on record for Bicc1 SAM D911K (domain or fragment, human, UniProt Q9H694 870-939, looked up) NSSFKGSDLPELFSKLGLGKYTDVFQQQEIDLQTFLTLTDQKLKELGITTFGARRKMLLAISELNKNRRK
5.87

# return recorded pKd for input ANKS3 SAM I455E (domain or fragment, human, UniProt Q6ZW76 421-490, looked up) RAPYSGPQDLAALLEQIGCLKYLQVFEEQDVDLREFLTLTESDLKEIGITLFGPKRKMTSAIARWHSSAR
5.66
